B1: P2RY14 (parent)
chain: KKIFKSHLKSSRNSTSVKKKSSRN

- Variants of: B1
- assayOverview: protein stability index of a GFP-peptide fusion (GPS, HEK-293T) (PSI 1-6); higher = more stable;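 note: lentivirally expressed fusions sorted by FACS into six bins by GFP to DsRed ratio, PSI derived from sequencing read proportions per bin multiplied by bin number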
- conditionsUsed: c terminus: a fixed tail appended
Short version: protein stability index at least 4 is YES, less is NO.

Q: Threshold query (protein stability index >= 4) on `S10I`
Result: NO

Q: Check this variant for protein stability index at or above 4: `F4M`
Result: YES

Q: Reported protein stability index reaches at least 4 for `K9P` ?
Result: YES

Q: Is protein stability index at least 4? Consider `I3R`
Result: YES

Q: Item `K20M` with protein stability index of 4 or above?
Result: NO

Q: Could you tell me if the measured protein stability index of `N24G` reaches 4 or more?
Result: YES
